Examples of molecules with documented IC50 follow.
Assay system: Glycogen synthase kinase-3 (Oryctolagus cuniculus)
Test description: Inhibition of rabbit GSK3
Report the value in µM with no unit label.

Some entries whose results are on file:
{"Smiles entry": "O=C1C=CC(=O)C1", "Assay system": "Glycogen synthase kinase-3 (Oryctolagus cuniculus)", "Output unit": "µM", "Observed result": 12}
{"Smiles entry": "Cn1sc(=O)n(-c2ccccc2Br)c1=O", "Assay system": "Glycogen synthase kinase-3 (Oryctolagus cuniculus)", "Output unit": "µM", "Observed result": 6}
{"Smiles entry": "Cn1sc(=O)n(-c2ccc(Cl)cc2)c1=O", "Assay system": "Glycogen synthase kinase-3 (Oryctolagus cuniculus)", "Output unit": "µM", "Observed result": 4}
{"Smiles entry": "COc1ccc(CN2C(=O)C=CC2=O)cc1", "Assay system": "Glycogen synthase kinase-3 (Oryctolagus cuniculus)", "Output unit": "µM", "Observed result": 2.5}
{"Smiles entry": "Cc1ccc(-n2c(=O)sn(C)c2=O)cc1", "Assay system": "Glycogen synthase kinase-3 (Oryctolagus cuniculus)", "Output unit": "µM", "Observed result": 5}
{"Smiles entry": "Cn1sc(=O)n(-c2cccc(Br)c2)c1=O", "Assay system": "Glycogen synthase kinase-3 (Oryctolagus cuniculus)", "Output unit": "µM", "Observed result": 4}
{"Smiles entry": "O=C1CSC(=O)N1Cc1ccccc1", "Assay system": "Glycogen synthase kinase-3 (Oryctolagus cuniculus)", "Output unit": "µM", "Observed result": 100}
{"Smiles entry": "O=c1ssc(=O)n1Cc1ccccc1", "Assay system": "Glycogen synthase kinase-3 (Oryctolagus cuniculus)", "Output unit": "µM", "Observed result": 12}
{"Smiles entry": "Cn1c(=O)n(-c2ccccc2)c(=O)n1C", "Assay system": "Glycogen synthase kinase-3 (Oryctolagus cuniculus)", "Output unit": "µM", "Observed result": 100}
{"Smiles entry": "Cn1c(=O)ssc1=O", "Assay system": "Glycogen synthase kinase-3 (Oryctolagus cuniculus)", "Output unit": "µM", "Observed result": 100}

For this molecule ( `O=C1CNC(=O)N1Cc1ccccc1` ), measured IC50 is 100

Query `CCn1c(=O)sn(C)c1=O` yields IC50 of 5

Input `O=C(c1ccccc1)n1c(=O)n(-c2ccccc2)c(=O)n1C(=O)c1ccccc1` . Output IC50: 100
